The measured values listed here are drawn from patent US4904590A.

# Test system: Streptococcus faecium 2041
# Type: cell-based
# Assay Context: Enterococcus faecium; Streptococcus faecium 2041; agar-dilution; read-out: MIC
Value Kind: MIC (µg/mL)
Give bare numbers, in µg/mL.

Consider the following illustrative entries.
Molecule	Value Reported
Cc1c([O-])c([N+]#N)c2c(c1O)C(=O)[C@@]1(Cl)C[C@@H](Cl)C(C)(C)O[C@@]1(C[C@H]1C(C)(C)[C@@H](Cl)CC[C@]1(C)O)C2=O [A80915D]	32
C=C1CCC(Cl)C(C)(C)C1CC12OC(C)(C)C(Cl)C=C1C(=O)c1c(cc(O)c(C)c1O)C2=O (stereo not shown) [Compound 5]	8
C=C1CCC(Cl)C(C)(C)C1CC12OC(C)(C)C(Cl)CC1(Cl)C(=O)c1c(O)c(C)c([O-])c([N+]#N)c1C2=O (stereo not shown) [A80915B]	8

Find the recorded MIC belonging to C=C1CCC(Cl)C(C)(C)C1CC12OC(C)(C)C(Cl)CC1(Cl)C(=O)c1c(cc(O)c(C)c1O)C2=O (stereo not shown) [A80915A] and report it.
8
